assay-summary: Cytotoxicity against human BJeH cells expressing wild type RAS after 48 hrs by alamar blue assay
Type: functional, cell-based
conditions: read-out: LC50 (the source's name)
recorded-metric: CC50 (µM)
Please reply with the bare figure in µM and do not write the unit itself.

Item under review: CC(CO)C1c2[nH]c3ccccc3c2CCN1C(=O)OC(C)(C)C (stereo not given) . Reported CC50?
60.7

Query CC(C)(C)OC(=O)N1CCc2c(n(C(=O)OC(C)(C)C)c3ccccc23)C1CC=O (stereo not given) next
48.3

Query CN1C(=O)C(C2NCCc3c2[nH]c2ccccc32)C(=O)N(C)C1=O (stereo not given) next
32.2

Query CCOC(=O)C1c2[nH]c3ccccc3c2CCN1C(=O)OCc1ccccc1 (stereo not given) next
52.9

Query CCOC(=O)C1c2c(c3ccccc3n2C)CCN1C(=O)OC (stereo not given) next
63.2

Query CC(CC1C(=O)N(C)C(=O)N(C)C1=O)C1NCCc2c1[nH]c1ccccc21 (stereo not given) next
54.3

---

Test system: HT1299
assay-summary: Cytotoxicity against human HT1299 cells at 20 ug/mL after 48 hrs by alamar blue assay
Format: functional, cell-based
The source made the active and inactive calls. The calls are words filed in the database; no cut-off is given here.
recorded-metric: Activity

{"compound": "CCOC(=O)C1NCCc2c1[nH]c1ccccc21 (stereo unspecified)", "result": "inactive"}
{"compound": "CN1C(=O)C(c2nccc3c2[nH]c2ccccc23)C(=O)N(C)C1=O", "result": "inactive"}
{"compound": "CCOC(=O)C1c2c(c3ccccc3n2C(=O)OC(C)(C)C)CCN1C(=O)OC (stereo unspecified)", "result": "inactive"}
{"compound": "CCOC(=O)C(C)C1NCCc2c1[nH]c1ccccc21 (stereo unspecified)", "result": "inactive"}
{"compound": "COC(OC)c1nccc2c1[nH]c1ccccc12", "result": "inactive"}

Proceed to the following item.
Item under review: CN1C(=O)C(Cc2nccc3c4ccccc4n(C(=O)OC(C)(C)C)c23)C(=O)N(C)C1=O . Reported Activity?
inactive

---

assay-summary: Cytotoxicity against human HT1299 cells after 48 hrs by alamar blue assay
Type: functional
conditions: HT1299, 48 h, read-out: LC50 (the source's name)
recorded-metric: CC50
Just the number plus its unit, please.

Sample records with CC50:
{"molecule": "CC(C)(C)OC(=O)N1CCc2c(n(C(=O)OC(C)(C)C)c3ccccc23)C1CC=O (stereo not drawn)", "CC50": "11.8 µM"}
{"molecule": "CCOC(=O)C1c2c(c3ccccc3n2C)CCN1C(=O)OC (stereo not drawn)", "CC50": "30 µM"}
{"molecule": "O=Cc1nccc2c1[nH]c1ccccc12", "CC50": "67.5 µM"}
{"molecule": "CC(CO)C1c2[nH]c3ccccc3c2CCN1C(=O)OC(C)(C)C (stereo not drawn)", "CC50": "24.8 µM"}
{"molecule": "COC(OC)C1c2[nH]c3ccccc3c2CCN1C(=O)OCc1ccccc1 (stereo not drawn)", "CC50": "52.6 µM"}
{"molecule": "CC(CC1C(=O)N(C)C(=O)N(C)C1=O)C1c2c(c3ccccc3n2C(=O)OC(C)(C)C)CCN1C(=O)OC(C)(C)C (stereo not drawn)", "CC50": "16.9 µM"}
{"molecule": "CC(C=O)C1c2c(c3ccccc3n2C(=O)OC(C)(C)C)CCN1C(=O)OC(C)(C)C (stereo not drawn)", "CC50": "46.7 µM"}

Item under review: CN1C(=O)C(C2NCCc3c2[nH]c2ccccc32)C(=O)N(C)C1=O (stereo not drawn) . Reported CC50?
32.8 µM

---

assay-summary: Cytotoxicity against human BJeH cells expressing wild type RAS after 48 hrs by alamar blue assay
Format: functional, cell-based
conditions: read-out: LC50 (the source's name)
recorded-metric: CC50 (µM)
Please reply with the bare figure in µM and do not write the unit itself.

{"compound": "CCOC(=O)C1NCCc2c1[nH]c1ccccc21 (centres undefined)", "value-units": "µM", "CC50": 71.7}
{"compound": "COC(OC)c1nccc2c1[nH]c1ccccc12", "value-units": "µM", "CC50": 82.6}
{"compound": "CCOC(=O)C(C)C1NCCc2c1[nH]c1ccccc21 (centres undefined)", "value-units": "µM", "CC50": 73.5}

Proceed to the following item.
Item under review: COC(OC)C1c2[nH]c3ccccc3c2CCN1C(=O)OCc1ccccc1 (centres undefined) . Reported CC50?
52.6
